# PROTOCOL NOTES: Thermal stability (Protein Thermal Shift assay)
# Assay type: physicochemical
# RECORDED CONDITIONS: VHH domains, first derivative analysis
READOUT TYPE: Tm (°C)
Dear colleague, please return just the value in °C, with no unit written.

MOLECULE	Tm, °C
A08: ALPP targeting VHH domain, SEQ ID NO: 18 (protein) VHH: QVQLVESGGGLVQAGESLRLACAASGTIFSGNAVGWYRQAPEKQREWVSSITDYGDTDYAEAVKGRFTISRDNAKNTVYLQMNSLKPEDTAVYYCYVYQRGESEEYWGQGTKVTVSS	71.4
F05: ALPP/ALPPL2 targeting VHH domain, SEQ ID NO: 34 (protein) VHH: QVQLVESGGGLVQAGGSLRLSCAASGRAFGDYNIGWFRQAPGKEREFVARRTWDGSSTRYDDSVKGRFTVSIDNAKNTAYLQMNSLKTEDTAVYYCAAGRYSRVRGWEYDYWGQGTQVTVSS	70.6

Let's switch to this molecule now.
Query :: State the recorded Tm for this entry: B09: ALPP targeting VHH domain, SEQ ID NO: 21 (protein) VHH: QVQLVESGGGSVQAGGSLRLSCAASGPSLSHYAMGWFRQAPGKEREFVAGISWGGGRTSYTDSVKGRFTISRDNAKNTVYLQMNNLKPEDTGVYYCAGRYGRGRNVEYEYDYWGQGTQVTVSS
Result :: 77.1
